// reported protease stability score per item
- ASSAY_EXPLANATION: protease stability score; higher = more stable; yeast display proteolysis, trypsin and chymotrypsin;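 further: relative to predicted unfolded state with 0 unfolded-like and 1 meaning tenfold more protease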
The reply should be a number, written without any unit.

- SEQUENCE: "DESEELAERLLEEMEELILTGDWEKFVRMVDPHARFVIGEFDNHGRETFVKELLELRVHIRDSRIREIDVQGEKIRMHTQIDFEIDVDGVRHRREHSFHFIVLKIDGRWSVQQLRIK"
  READOUT_NUMBER: 0.64
- SEQUENCE: "DEADRFREFAKRLYLEKSNTGDWEELIRLFDPHARYEYGDKEMHGRDTIDFLREMLGIDRIQLRHVNDHSVDLQGDKIHIDGTVVEEWNGQEYRSRVILILRKVDGRWYLETMHVD"
  READOUT_NUMBER: 0.409

Find the recorded protease stability score belonging to `SEDQEVAEKDLEIYSRAITTGNEHELKHLLDPNYKLIVNGQEYHGWETLRHYWKHLRVESVEFEIRSFDSQGDKLHIDGIIILHGEVDGRHTELFEDVHIRAHKINGRWHNKEVNIR` and report it. 0.897

====

- ASSAY_EXPLANATION: protease stability score; higher = more stable; yeast display proteolysis, trypsin and chymotrypsin;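 further: relative to predicted unfolded state with 0 unfolded-like and 1 meaning tenfold more protease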
PROPERTY_NAME: protease stability score

- SEQUENCE: "DEEKEHAHRFYEEWVKAWRTGDFKHMLDLIDPNTKIVINGQEYHGMEMWSHIVEHLERLHGYRINHERIHHIRNIDGKVDSDVHVRGRYNGRDIDSRMHIHLDVVDGRIKSLEFRSK"
  protease stability score: 1.55
- SEQUENCE: "SEDEEVLEWAIKIVILALKTGDEDLFRKLADPTMRTEINGVILHGWKEVLRSLKELRVHHVRIERVEVINGRVHVDSREDVEFNGVRYETITHLVIEKVDGRWLMHSLKVE"
  protease stability score: 2.06
- SEQUENCE: "SEDEKEAKETQSIYSHAVQTGDEHHLKELADPNVRIEINGVEYVGWEQLKDMLERFKNVRIKVSVRRVHQIGDKIHLNTELEEDVDGVRRVIDVRVIIWKINGRWRFKTFESQ"
  protease stability score: 1.41
- SEQUENCE: "TESKQEEHLALEVIEHAYRTGDEHELHELLDPHTRIFIGDKTHHGREFYLRVLKRERDELGVDKIEIIIRRVEIQGDKMIMDGELRVNGKTVRVHLILRKYDGRWLIKHITHE"
  protease stability score: 1.47
- SEQUENCE: "SEDEELEKVFLRILKEILTTGDEDTLRFLLDPNARMHVGDKELHGWSNVYEQINQLRIKDYELRDFKRVGDKVDFDGRNHGHFNGRDVEHRARLIIQKIDGRWFIHANIIE"
  protease stability score: 0.626

Find the recorded protease stability score belonging to `DHQRDLLKEARERLLHSIETGDEELWRRLFDPETLLIAENHSSHGREARHDWKKRFDVIDHLEIRTRDVDMIGDKIYVEGKLDYITKYDGVTRNYTNTVHFIATKINGRWVIESVRFE` and report it. 1.09

Try the sequence `SELEKLLLDIARKLIHSYLTGDWRTFQELADPNVKIRVVVGDKEERIHGRENIIEWLERERKQYDHIEVRIDDERTIGDKLHIDGTFIIRVDGKTRFSRVEIHLLIIDGKVTSLEFHEK` 1.07

Try the sequence `SEEEHDTRNALKIIIRTLITGNEDERRKLLDPHVRLEFEGWHEHGRDAAHLLSFWYRERVDVLRDSKVEHVELQGDKIRMDIILISEYNGVHTSTHVHIVVEKFNGRWHMRSIFFL` 1.16

Try the sequence `SEEEEWLRRYRHLFKHLWTTGDWRTLEELLDPRTRIDIDVGDKRYHIHGREDAVEFFHRERRELGIDHIEDKRTRVIDGQVEIHGKIHVDGRDETRTIHVIVVNGRMKYLYFHVE` 0.5

Try the sequence `DEFQHMAELASTLFQRSNHTGDEHSLQEMLDPNVRVIVGDKEFHGMEELLKTLRKELEILGVQRIETEVHQVNVQGNKINVDLILHVNGRERRIHLWAHKINGRWITERIEVR` 0.922

Try the sequence `DEDTRLEKEFLRILEEILKTGDEERLRRLVDPNTRLEVGDKRFHGWDAVHYMLRIFGIERIHFELTSRRRVNGRLELDGILRFNGRDHDTHIIIDKINGVWIVREERVE` 2.19

Try the sequence `SEDSEDAKKVVEISIHTVVTGDEHTNTRLFDPHVRIEIGDKEIHGREKFVHIIRHWRMEAHVEVDEVKRQGDKVRVDGHVRIILDINGRKIDIESQVDVNILKVNGRWLIESEHIH` 1.08

Try the sequence `HELQEEATRFIKEFQEAVRTGDWRLWKKQLDPHVRLDIDGRHYHGRDIVLEFLRELEDKMGIERENVHIEHIDFQGDKVIVHSKEHGIVNGQRFDDKSSSIVLKINGQWTLHSVKIR` 1.19

Try the sequence `SREEEIMRRFLELLILAFRTGDEDTYLKMLDPRVRLEINGRDLHGRETVREHYKDERDELGVSQFHIWVRDLRVQGDKIETEGHLEFDGRWLDIHFHAHFVDGRLKSFRIEIR` 1.32

Try the sequence `DDRERATRELLKLLWDAMKTGDEELFYKLADPDTRMIINGRELHGMEEVSRILLELLTHMRLKNITIRDIDVQGDKVDVHGELHGEVGDKSHTFETHIIILKVNGKWVLRSYIIR` 1.55

Try the sequence `SEEEERMETLTRLLDHAWHTGDFDFLSKLLDPNTRVVQGEFHHHGRHALRKILHDLNRIMGVDHSDIEDREIQGDKIHIHVRIEVNGRVVDSHINIIVVDGRIKTVEMTIR` -0.216

Try the sequence `SEFDRLSKEAVDILVHSLETGDWRSVSELFDPDYRLDVGDKRYHGREKVNEFMRHMGIKHVEIKRIHLQGDKAHIDSRMLVDGREFITHVIMEKVNGRWVITHISIE` 1.01

Try the sequence `SEEEEESRFMFELIEHFLKTGNWEMISKLADPNMKTVINGKTYHGREMLIHEFEKLGADHITIHDYKDIDGQVIIHTRIHVGDKTYDVVIISEKVDGKWHLKEIHIR` 1.99

Try the sequence `SEDEELLRESVRIFREAMRTGDEEFSERMIDPNVRIHIGDKEYIGREWASEWHKRLGIKHSRFRHIEIQGDFMIADVENKVGDKHIQVEYWRHKINGRWIIESIKVH` 1.55

Try the sequence `SESERYIHEAERHLIEKLRTGDWDDMSRLLDPHVRLDVNGQEFHGWHRVSDTMRRFGFKHVDVEDTHINEDELRSHLRSRVDGVHFELHIQMRKVNGRWFFKNLEFK` 1.15

Try the sequence `TEEESQAREALLIVLELLRTGDWRSMEKYADPHTLQVFNGRHLHGRELFSDFLEEYERKLGVDRIRVHIHHLDVINGQLRVDTTIDYGDKHHRMIIIINKYDGRWELEQLRIT` 0.341

Try the sequence `DEDEREVKHWLKILLHELWTGDFRNVSRLMDPHARLLINGVTVVGREEFLEVLRRVDHIELRIRDMKVIDGRIHAETELIEHFDGRTFIHDTHMRAKKVDGRWRIESIEIR` 1.31

====

// reported protease stability score per item
- ASSAY_EXPLANATION: protease stability score; higher = more stable; yeast display proteolysis, trypsin and chymotrypsin;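 further: relative to predicted unfolded state with 0 unfolded-like and 1 meaning tenfold more protease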
The reply should be a number, written without any unit.

Worked cases, answers included:
- SEQUENCE: "SEFDEASREAHEWFVELSKTGDEHEVKKFFDPNMRIDWNGVELIGRDTASKFFHELRFEHVRMEDVKFIDGVLRLDSHSIVNVNGQRFETRDDIVIEKFNGQWILKSIRVE"
  READOUT_NUMBER: 1
- SEQUENCE: "SEDEEDLRRIFELLMELWLTGDERHMEHLIDPNAKLHYDGVEYHGREDARRLIHRFDVFEDARVRRVRLIDGQVRMDTHFIGRVDGRRIQVDSIIFMRKINGRWVSKEEVYV"
  READOUT_NUMBER: 1.34
- SEQUENCE: "DEEEEESHEATEMILYAHKTGDFDLWEKLADPHVRLDVNGVHVHGREEYVRIMRHIHKNWGVQRFHVEFHDLELQGEKVRVRLRSNFNGRHHTETIIIEKINGRWYLKTRRIT"
  READOUT_NUMBER: 1.42

Find the recorded protease stability score belonging to `DETENSLRTMLHRLLDSIRTGDFRTVDDLADPHVKIDVGDKHIHGREIYRKIVLQADHVESRFHLHDIHNIGNWAHVDGRLINHEVVDGQKIDLDLRIEIIVTKIDGKWTIESVRFE` and report it. 1.46

Try the sequence `SSEEHDAKNMHKMFREAMMTGDEDLLKNLLDPHVRLTFNGKDFHGWDRVYELFRKRLEHLGITWKDWDLHIIETQGDKVELNSTLHGRVGDKHVDDHTTLFIRKIDGQWVLTEVRIG` 1.46

Try the sequence `DEAHEWLKTLADLFFHWMLTGDFEHWIDYLDPDAKIEFEGRSNHGRENIYQLLLELKQEIRVRDYELKDVRIQGEKLLLNVHLHGHIGDKEIRTDTVLRLRVVDGRLKEVHIEIR` 1.52
